MEASURED_ON: cAMP and cAMP-inhibited cGMP 3',5'-cyclic phosphodiesterase 10A (Rattus norvegicus, UniProt Q9QYJ6)
Sequence (Q9QYJ6 whole entry): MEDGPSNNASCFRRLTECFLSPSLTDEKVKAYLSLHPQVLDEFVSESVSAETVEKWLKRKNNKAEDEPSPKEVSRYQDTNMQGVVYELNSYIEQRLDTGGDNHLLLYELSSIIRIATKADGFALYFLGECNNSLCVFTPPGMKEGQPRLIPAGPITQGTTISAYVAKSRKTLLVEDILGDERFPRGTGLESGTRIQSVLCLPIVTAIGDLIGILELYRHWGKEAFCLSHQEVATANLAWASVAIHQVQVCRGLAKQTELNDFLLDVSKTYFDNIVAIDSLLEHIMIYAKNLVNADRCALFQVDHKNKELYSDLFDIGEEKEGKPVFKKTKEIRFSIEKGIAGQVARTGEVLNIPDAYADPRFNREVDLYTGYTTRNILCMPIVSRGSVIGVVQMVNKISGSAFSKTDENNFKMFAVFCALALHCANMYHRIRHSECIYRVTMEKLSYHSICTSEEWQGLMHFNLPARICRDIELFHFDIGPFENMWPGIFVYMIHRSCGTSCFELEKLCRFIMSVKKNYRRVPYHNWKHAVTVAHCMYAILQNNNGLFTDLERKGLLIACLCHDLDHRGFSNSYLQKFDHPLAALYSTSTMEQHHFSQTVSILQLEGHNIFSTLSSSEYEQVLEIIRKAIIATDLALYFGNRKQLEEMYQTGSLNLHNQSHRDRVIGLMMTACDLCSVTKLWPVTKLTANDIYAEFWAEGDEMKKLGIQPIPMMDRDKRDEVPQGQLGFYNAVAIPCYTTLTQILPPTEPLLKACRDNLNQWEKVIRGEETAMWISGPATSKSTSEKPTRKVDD
ASSAY_COMMENT: The products of Examples 1-175 were tested in the assay described below.PDE10 activity was measured using a scintillation assay (SPA-based method) similar to that previously described by Seeger, T. F. et al., Brain Research 985 (2003) 113-126. The compounds' relative activity as PDE10 inhibitors was investigated by assaying a fixed amount of enzyme in the presence of the test compound and low substrate concentration (cAMP) such that an IC50 could be determined. […] The assay is performed in a 384-well format with 50 uL assay buffer (50 mM TRIS pH 7.5; 1.3 mM MgCl2; 0.01% Brij) containing enough PDE10.
READOUT_LABEL: IC50 (nM)
Report the figure in nM without appending any unit label.

Query string: What value of IC50 has been recorded for this entry: CCc1nn(C)c2c1CN(c1ncnn3c(C)nc(-c4cccc(OC)c4)c13)CC2
Result string: 2.7
